biological target: PDGF-BB (Homo sapiens, UniProt P01127 P01127:82-190); test: competition; PDGF alpha-receptor PAE cells, 4 C; mitogenic half-maximal 2.5 nM; conditions: tags: R&D Systems, E. coli; chain copies: B chain dimer; three-way helix junction
Sequence (P01127 82-190, one chain of several): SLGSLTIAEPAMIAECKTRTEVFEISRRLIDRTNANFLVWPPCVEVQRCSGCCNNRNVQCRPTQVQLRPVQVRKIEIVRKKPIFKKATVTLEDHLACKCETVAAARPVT
pIC50: −log10 of the molar value.
test readout: pIC50

| binder | test readout | result |
| --- | --- | --- |
| CACAGGCTACGGCACGTAGAGCATCACCATGATCCTGTGT (ssDNA, 3'-3' idT) [36t] | pIC50 | ~9.00 |
